Cited source for all entries: BigSolDB 2.1

- assayContext: in ethanol, 318.15 K
metricName: solubility (mole fraction)
The response must contain the number and no unit.

[in] Query: solubility (mole fraction); subject: `O=c1c2ccccc2sc2ccc(Cl)cc12`
[out] 0.0019

* * *

- assayContext: in acetone, 329.25 K
metricName: solubility (mole fraction)

[in] I'd like to know its solubility (mole fraction). The compound in question is `O=c1c2ccccc2sc2ccc(Cl)cc12`
[out] 0.00692

* * *

- assayContext: in 2-butanone, 335.95 K
metricName: solubility (mole fraction)

[in] Which value of solubility (mole fraction) has been reported for `O=c1c2ccccc2sc2ccc(Cl)cc12` in the records?
[out] 0.024
